Reference source for all entries: patent US11384060B2

# ASSAYED SYSTEM: glucagon receptor (GCGR) overexpressed CHO-K1 cells or human primary hepatocytes (Homo sapiens, UniProt P47871)
# Construct: expressed in transfected cells; host or cells: GCGR overexpressed CHO-K1 cells or human primary hepatocytes (endogenous receptor)
# Sequence (P47871 26-477): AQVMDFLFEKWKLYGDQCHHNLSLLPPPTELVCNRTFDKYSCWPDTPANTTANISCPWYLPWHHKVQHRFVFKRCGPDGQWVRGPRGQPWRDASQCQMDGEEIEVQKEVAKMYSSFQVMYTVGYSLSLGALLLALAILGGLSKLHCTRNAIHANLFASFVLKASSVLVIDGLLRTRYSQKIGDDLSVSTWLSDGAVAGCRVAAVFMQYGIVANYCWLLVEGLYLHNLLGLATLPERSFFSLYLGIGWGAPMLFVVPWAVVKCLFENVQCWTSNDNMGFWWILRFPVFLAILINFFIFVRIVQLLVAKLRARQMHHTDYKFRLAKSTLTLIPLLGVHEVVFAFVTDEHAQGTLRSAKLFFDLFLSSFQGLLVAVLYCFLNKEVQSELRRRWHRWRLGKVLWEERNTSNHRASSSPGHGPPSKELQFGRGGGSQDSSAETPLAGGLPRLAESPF
# METHOD SUMMARY: Glucagon cAMP inhibition assay (Cisbio cAMP Dynamic 2 HTRF)
# Type: cell-based
Threshold check on IC50 cAMP: strictly below 2000 nM is yes (1); on or above 2000 nM is no (0).

Examples from the recorded data:
# COMPOUND, ASSIGNED LABEL
rows = [
    ("CCCOC[C@H](Cc1ccc(-c2ccc(OC(F)(F)F)cc2)cc1)Nc1ccc(C(=O)NCCC(=O)O)cc1 [Compound 19-14]", "yes (1)"),
    ("CC(C)COC[C@H](Cc1ccc(-c2cccc(OC(F)(F)F)c2)cc1)Nc1ccc(C(=O)NCCC(=O)O)cc1 [Compound 19-30]", "yes (1)"),
    ("CC(C)C[C@H](Nc1ccc(C(=O)NCCC(=O)O)cc1)C(=O)Nc1ccc(-c2cc3ccccc3s2)cc1 [Compound 23-12]", "no (0)"),
    ("O=C(O)CCNC(=O)c1ccc(N[C@H](Cc2ccc(-c3ccc(Cl)cc3Cl)cc2)C(=O)Nc2ccc(C(F)(F)F)cc2)cc1 [Compound 24-18]", "yes (1)"),
    ("CCCC[C@@H](COc1ccc(-c2ccc(C(F)(F)F)cc2Cl)c(C)n1)Nc1ccc(C(=O)NCCC(=O)O)cc1 [Compound 18-2]", "yes (1)"),
    ("CC(C)[C@@H](COc1ccc(-c2ccc(C(F)(F)F)cc2Cl)cn1)Nc1ccc(C(=O)NCCC(=O)O)cc1 [Compound 15-9]", "yes (1)"),
    ("O=C(O)CCNC(=O)c1ccc(N[C@H](Cc2ccc(-c3ccc(C(F)(F)F)cc3)cc2)C(=O)Nc2ccc(OC(F)(F)F)cc2)cc1 [Compound 24-28]", "yes (1)"),
    ("CC(C)(C)c1nnc(-c2ccc(OC[C@@H](Nc3ccc(C(=O)NCCC(=O)O)cc3)c3ccc(-c4ccc(Cl)cc4Cl)cc3)nc2)o1 [Compound 15-34]", "no (0)"),
    ("O=C(O)CCNC(=O)c1ccc(N[C@@H](Cc2ccc(F)cc2)C(=O)Nc2ccc(-c3cc4ccccc4o3)cc2)cc1 [Compound 23-10]", "yes (1)"),
    ("CCCOC[C@H](Cc1ccc(-c2c(C)cc(C)cc2C)cc1)Nc1ccc(C(=O)NCCC(=O)O)cc1 [Compound 19-16]", "yes (1)"),
]

Would you kindly verify if IC50 cAMP of CCCCC[C@@H](Cc1ccc(-c2ccc(OC(F)(F)F)cc2)cc1)Nc1ccc(C(=O)NCCC(=O)O)cc1 [Compound 19-9] is strictly less than 2000 nM?
yes (1)

Field entry: CC(C)[C@@H](COc1nnc(-c2ccc(Cl)cc2Cl)o1)Nc1ccc(C(=O)NCCC(=O)O)cc1 [Compound 22-14]
no (0)

Input CCOC(=O)CCNC(=O)c1ccc(N[C@H](Cc2ccccc2)C(=O)Nc2ccc(C(F)(F)F)cc2)cc1 [Compound 24-3]
yes (1)

What do you have for CC[C@H](C)[C@@H](COc1ccc(-c2ccc(C(F)(F)F)cc2F)c(C)n1)Nc1ccc(C(=O)NCCC(=O)O)cc1 [Compound 18-6] ?
yes (1)
